Measure: melting point

# Compound, Measure, Result
rows = [
    ("N#Cc1c(N)sc2ccccc2c1=O", "melting point", "295 to 299 °C"),
    ("Cc1ccc(-c2nc3cc(N=C=S)ccc3o2)o1", "melting point", "110 to 121 °C"),
    ("C=C=CC(=O)Nc1ccc2ncnc(Nc3cccc(Br)c3)c2c1", "melting point", "268 to 270 °C"),
    ("O=C(NCc1ccccc1O)c1[nH]c2ccc(Cl)cc2c1S(=O)(=O)c1ccccc1", "melting point", "243 to 244 °C"),
    ("Oc1cccc(-c2cn3ccc4ccccc4c3n2)c1", "melting point", "201 to 202 °C"),
]

# compound CCN(CC(C)C)c1c(C(O)C#Cc2ccc(C(=O)O)cc2)cccc1C(C)(C)C (configuration not stated) ; its melting point = 117 °C

# compound O=C(c1cccnc1)c1cc(-c2ccccc2)c(N2CCOCC2)s1 ; its melting point = 180 °C

# compound CC1(C)C(=O)C(C(=O)Cc2ccc(Cl)cc2)C(=O)C(C)(C)C1=O ; its melting point = 57 to 61 °C

# compound O=C(CCl)Nc1cscn1 ; its melting point = 115 to 119 °C

# compound O=C(O)c1cn(-c2cccnc2)c2c(F)c(F)c(F)cc2c1=O ; its melting point = 122 to 124 °C

# compound CSc1ccc(CCC(C)=NO)cc1 ; its melting point = 71 °C

# compound COC(=O)c1ccc(CCN(C)CCCC(C#N)(c2cccc(C(=O)OC)c2)C(C)C)cc1 (configuration not stated) ; its melting point = 108 to 112 °C

# compound COc1cc(Cc2nc(NC(C)(C)C)c3c(C)c(C#N)sc3n2)cc(OC)c1OC ; its melting point = 146 to 148 °C

# compound CC(C)COc1c(-c2ccc(S(C)(=O)=O)cc2)cnn(CC(F)(F)F)c1=O ; its melting point = 108 to 110 °C

# compound CC(C)CNC1NC(=O)N(c2ccccc2C(=O)O)C(=O)N1 ; its melting point = > 300 °C

# compound OC(c1nccn1CCc1ccccc1)C1CCNCC1 (configuration not stated) ; its melting point = 145 °C

* * *

Measure: melting point

Solved cases (6 shown):
# Compound, melting point
data = [
    ("CCNC(=NS(=O)(=O)c1ccc(Cl)cc1)N1CC(c2ccccc2)C(c2ccc(Cl)cc2)=N1 (single isomer, unassigned; (-))", "172 to 175 °C"),
    ("CC(C)Oc1nsc(N)c1C#N", "146 to 148 °C"),
    ("CCC(CC)N1CSc2cnc(N)nc21", "> 232 °C"),
    ("COC(=O)[C@H](CC(C)C)NC(=O)[C@@H]1CSC(=O)N1", "125 to 126 °C"),
    ("Cn1c(-c2ccccc2[N+](=O)[O-])nc2ccccc21", "132 to 134 °C"),
    ("O=c1ccn(-c2ccccc2OC(F)F)nc1-c1ccnn1-c1ccccc1", "123 to 124 °C"),
]

# compound C#Cc1ccc(C(=O)OC)nc1 ; its melting point = 40 to 45 °C

# compound CCc1nc2c(N)nc3ccccc3c2n1CC(C)C ; its melting point = 233 to 234 °C

# compound COC1(NC(=O)c2ccccc2)CC1 ; its melting point = 190 to 191 °C

# compound CCOc1ccc(C2=NN(CCCCCC(=O)O)C(=O)[C@H]3CC=CC[C@@H]23)cc1OCC (relative stereo) ; its melting point = 97 to 99 °C

# compound CCCCCCCOc1ccc(C(=O)Nc2ccccc2OCc2nnn[nH]2)cc1 ; its melting point = 148 to 150 °C

# compound COc1cc(Cl)ccc1C(C)=O ; its melting point = 55 °C

# compound CCCCCCCCCCCCCCN(C(=O)CCCCCCCCCCC)C1(N)OC(CO)C(O)C(O)C1C(=O)CNC(=O)C(C)(N)C(=O)C(C)N (stereo unspecified) ; its melting point = 132 to 134 °C

# compound CN1CCOC(=NO)C1=O ; its melting point = 199 to 201 °C

* * *

Measure: melting point

Solved cases (4 shown):
# Compound string, melting point
rows = [
    ("O=C(O)CS(=O)(=O)C12CC3CC(CC(C3)C1)C2", "158 to 162 °C"),
    ("O=[N+]([O-])c1c(Nc2ccc(O)cc2)ncnc1-c1ccc(C(F)(F)F)cc1F", "169 to 172 °C"),
    ("COc1cc2c(c3c1OC(C)(C)C3)C(c1cccc(-c3ccccc3)c1)=NC(C)(C)C2", "141 to 142 °C"),
    ("CC(C)Cc1ccc(COc2ccc(CC(=O)O)cc2Cl)cc1", "97 to 99 °C"),
]

Field: next molecule
# molecule Cn1c2c(c3ccccc3c1=O)C(=O)c1cc3c(cc1-2)OCO3 ; its melting point = 310 to 312 °C

* * *

Measure: melting point (°C)

[1] Cc1cc(-n2ccnc2)c2cccc(OCc3c(Cl)ccc(S(=O)(=O)N4C[C@H](O)C[C@H]4C(=O)O)c3Cl)c2n1
[2] O=C(NC(Cc1ccc(OCc2ccccc2)cc1)C(=O)O)c1cn2cccc(OCc3ccc(Cl)cc3)c2n1 (centres undefined)
**Q:** Please indicate which has the smaller reported melting point: 1 , or 2 . Response format: the label of the selected entry.
**A:** 1
(1: 140 °C, 2: 210 °C)

* * *

Measure: melting point (°C)

Solved cases (5 shown):
# Compound, Unit abbrev, melting point
records = [
    ("Clc1cccnc1-c1ccc2[nH]nc(Nc3ccccn3)c2c1", "°C", 164),
    ("COc1ccc(-c2nc(N)sc2CCC2CCCCC2)c(OC)c1", "°C", 122),
    ("OC1CSC(Oc2cncc(-c3cc4ccccc4s3)c2)C(O)C1O (stereo not given)", "°C", 235),
    ("Cc1c(C(=O)Nc2ccc(N3CCC(N(C)CCO)CC3)c(C#N)c2)cnn1-c1ccc(Cl)cc1", "°C", 186),
    ("Cc1noc(C2CC2)c1I", "°C", 71),
]

[I] O=C(c1cc(=O)c2cc(O)ccc2[nH]1)N1CCC(Cc2ccc(F)cc2)CC1
[II] CCOC(=O)c1ccc(OCCCCc2cc(C)no2)cc1
**Q:** Between the two listed entries I and II , which has its melting point at the higher number? Response format: the label of the selected entry.
**A:** I

* * *

Measure: melting point

Solved cases (2 shown):
# Compound, Measure, Result
measured = [
    ("CN1CCCC(C(=O)N2CCC(c3[nH]nc4c3C(=O)c3c(NC(=O)NN5CCOCC5)cccc3-4)CC2)C1 (centres undefined)", "melting point", "158 to 160 °C"),
    ("CN1C(=S)N(c2cc(C(F)(F)F)cc(C(F)(F)F)c2)C(O)C1O (centres undefined)", "melting point", "133 to 135 °C"),
]

# compound COc1cc(-c2cnc3[nH]cc(C(=O)Cc4ccccc4)c3n2)cc(OC)c1OC ; its melting point = 226 to 227 °C

# compound CCOC(=O)c1ccc(-c2cn3cc(C)ccc3n2)cc1 ; its melting point = 228 to 230 °C

* * *

Measure: melting point

Solved cases (2 shown):
# Molecule, melting point
rows = [
    ("Cc1cccc(-c2nc(N)ncc2-c2ccc(=O)n(C(C)C)n2)c1", "198 °C"),
    ("CC(C)(C)NCC(O)COc1ccc2c(=O)cc(-c3cc(OCc4ccccc4)cc(OCc4ccccc4)c3)oc2c1 (stereo not given)", "170 to 171 °C"),
]

# molecule CC(=O)c1ccc(-c2ccccc2[N+](=O)[O-])cc1 ; its melting point = 106 to 109 °C

# molecule CC1CN(C2=Nc3ccccc3Oc3ccccc32)C(C)CN1 (stereo not given) ; its melting point = 46 to 48 °C

# molecule CCCCNC(=O)Oc1ccc(C(O)(CC)c2ccc(Cl)cc2)cc1 (stereo not given) ; its melting point = 78 to 79 °C

# molecule O=C(O)c1cccc(OC(Cl)=CCl)c1 ; its melting point = 137 to 141 °C

# molecule CC(NC(=O)N1CCc2cc(S(=O)(=O)N3CCN(c4cccc(Cl)c4)CC3)ccc21)C(=O)O (stereo not given) ; its melting point = 175 to 176 °C

# molecule CCc1nc2cc(C(F)(F)F)c(Cl)cc2n1-c1ccc(CCOC(=O)NS(=O)(=O)c2ccccn2)cc1 ; its melting point = 127 to 130 °C

# molecule C=C(C)c1nc2cc3c(cc2[nH]1)NC(=O)C3(C)C ; its melting point = 270 to 273 °C

# molecule COC(=O)c1c(-c2ccc(F)cc2)ccc2ccccc12 ; its melting point = 113 to 114 °C

# molecule CCNC(=O)/C=C/c1cccc(Br)c1 ; its melting point = 89 to 90 °C

# molecule CCS(=O)(=O)CCC(=O)NNC(=O)N1Cc2ccccc2Oc2ccc(C)cc21 ; its melting point = 167 to 169 °C

# molecule Cn1cc(C2=CCN(CCCN3c4cccc5cccc(c45)S3(=O)=O)CC2)c2ccccc21 ; its melting point = 161 °C

# molecule C[C@@H](O)Cn1ccc2cc(Cl)c(F)cc21 ; its melting point = 108 to 110 °C
